# System: SDH derived from Alternaria brassicae
# Experiment: SDH inhibition, DCIP method
# Format: biochemical
# Condition description: read-out: SDH IC50
pIC50: −log10 of the molar value.
Readout label: pIC50

Compound structure | Readout label | Recorded value
O=C(Nc1ccccc1-c1ccc(F)c(F)c1)c1nccnc1C(F)(F)F | pIC50 | 8.68

* * *

# Tested on: SDH derived from Sclerotinia minor
# Experiment: SDH inhibition, DCIP method
# Format: biochemical
# Condition description: read-out: SDH IC50
pIC50: −log10 of the molar value.
Readout label: pIC50

Molecule | Recorded value
O=C(Nc1ccccc1-c1ccc(F)c(F)c1)c1nccnc1C(F)(F)F [Compound 9] | 9.15
